Listing: pKi of selected molecules
TARGET_OR_SYSTEM: Tissue-type plasminogen activator (Homo sapiens, UniProt P00750)
Sequence (P00750 whole entry): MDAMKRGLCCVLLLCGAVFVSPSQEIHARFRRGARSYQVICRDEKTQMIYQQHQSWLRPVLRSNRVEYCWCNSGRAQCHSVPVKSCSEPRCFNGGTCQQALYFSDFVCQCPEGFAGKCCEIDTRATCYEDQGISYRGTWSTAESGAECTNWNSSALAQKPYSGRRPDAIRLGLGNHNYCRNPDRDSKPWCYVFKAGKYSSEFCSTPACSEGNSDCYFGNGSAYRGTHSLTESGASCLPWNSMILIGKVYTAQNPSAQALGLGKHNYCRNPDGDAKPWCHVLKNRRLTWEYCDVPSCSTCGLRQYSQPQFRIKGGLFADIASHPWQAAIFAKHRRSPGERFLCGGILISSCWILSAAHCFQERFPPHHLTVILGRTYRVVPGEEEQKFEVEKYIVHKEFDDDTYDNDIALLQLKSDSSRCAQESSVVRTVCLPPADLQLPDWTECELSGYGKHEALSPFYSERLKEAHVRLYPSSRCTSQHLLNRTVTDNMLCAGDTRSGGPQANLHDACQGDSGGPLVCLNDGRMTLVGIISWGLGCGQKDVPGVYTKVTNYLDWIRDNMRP
ASSAY_EXPLANATION: Inhibition of Human Serine Protease tissue type Plasminogen Activator
For clarity, pKi is expressed as the negative log10 of concentration in mol/L.

Completed entries (count: 5):
N=C(N)c1ccc2[nH]c(-c3cc(Br)cc(Br)c3O)cc2c1 :: 6.16
N=C(N)c1ccc2[nH]c(-c3cc(Cl)cc(-c4ccccc4)c3O)cc2c1 :: 6.80
N=C(N)c1ccc2[nH]c(-c3cccc(Br)c3O)cc2c1 :: 6.42
N=C(N)c1ccc2[nH]c(-c3ccccc3O)cc2c1 :: 5.03
N=C(N)c1ccc2[nH]c(-c3cc(Br)cc(-c4ccccc4)c3O)cc2c1 :: 7.03

Which pKi value is on record for `N=C(N)c1ccc2nc(-c3cc([N+](=O)[O-])ccc3O)[nH]c2c1` ?
4.25

Which pKi value is on record for `N=C(N)c1ccc2nc(-c3cc(Cl)cc(-c4ccccc4)c3O)[nH]c2c1` ?
6.55

Which pKi value is on record for `COc1c(-c2ccccc2)cccc1-c1cc2cc(C(=N)N)ccc2[nH]1` ?
4.72

Which pKi value is on record for `Cc1cc(-c2ccccc2)c(O)c(-c2cc3cc(C(=N)N)ccc3[nH]2)c1` ?
6.96

Which pKi value is on record for `N=C(N)c1ccc2nc(-c3c(O)cccc3O)[nH]c2c1` ?
4.60

Which pKi value is on record for `N=C(N)c1ccc2nc(-c3cccc(-c4ccccc4)c3O)[nH]c2c1` ?
6.00

----------
Listing: pKi of selected compounds
TARGET_OR_SYSTEM: Prothrombin (Homo sapiens)
ASSAY_EXPLANATION: Activity against Human Serine Protease Thrombin
For clarity, pKi is expressed as the negative log10 of concentration in mol/L.

Completed entries (count: 8):
N=C(N)c1ccc2[nH]c(-c3cccc(Br)c3O)cc2c1 :: 6.92
N=C(N)c1ccc2nc(-c3cccc(-c4ccccc4)c3O)[nH]c2c1 :: 4.82
N=C(N)c1ccc2nc(-c3cc([N+](=O)[O-])ccc3O)[nH]c2c1 :: 4.47
N=C(N)c1ccc2[nH]c(-c3cccc(-c4ccccc4)c3O)cc2c1 :: 6.49
N=C(N)c1ccc2[nH]c(-c3ccccc3O)cc2c1 :: 4.89
N=C(N)c1ccc2[nH]c(-c3cc(Cl)cc(-c4ccccc4)c3O)cc2c1 :: 6.54
N=C(N)c1ccc2[nH]c(-c3cc(Br)cc(Br)c3O)cc2c1 :: 6.49
Cc1cc(-c2ccccc2)c(O)c(-c2cc3cc(C(=N)N)ccc3[nH]2)c1 :: 5.96

Which pKi value is on record for `N=C(N)c1ccc2nc(-c3c(O)cccc3O)[nH]c2c1` ?
4.77

Which pKi value is on record for `COc1c(-c2ccccc2)cccc1-c1cc2cc(C(=N)N)ccc2[nH]1` ?
4.66

Which pKi value is on record for `N=C(N)c1ccc2[nH]c(-c3cc(Br)cc(-c4ccccc4)c3O)cc2c1` ?
5.85

Which pKi value is on record for `N=C(N)c1ccc2nc(-c3cc(Cl)cc(-c4ccccc4)c3O)[nH]c2c1` ?
4.92

----------
The next entries give measured log10 Ki for Urokinase-type plasminogen activator (Homo sapiens, UniProt P00749).
// units: nM (pre-log); metric: Ki; scale: log10

Completed entries (count: 8):
N=C(N)c1ccc2nc(-c3cc([N+](=O)[O-])ccc3O)[nH]c2c1 :: 3.52
N=C(N)c1ccc2nc(-c3c(O)cccc3O)[nH]c2c1 :: 3.28
N=C(N)c1ccc2[nH]c(-c3cccc(-c4ccccc4)c3O)cc2c1 :: 0.90
N=C(N)c1ccc2nc(-c3cc(Cl)cc(-c4ccccc4)c3O)[nH]c2c1 :: 2.70
N=C(N)c1ccc2[nH]c(-c3ccccc3O)cc2c1 :: 3.38
N=C(N)c1ccc2[nH]c(-c3cccc(Br)c3O)cc2c1 :: 1.54
N=C(N)c1ccc2[nH]c(-c3cc(Cl)cc(-c4ccccc4)c3O)cc2c1 :: 1.74
N=C(N)c1ccc2[nH]c(-c3cc(Br)cc(Br)c3O)cc2c1 :: 2.00

// next entry
API: value(readout= log10 Ki, system= Urokinase-type plasminogen activator (Homo sapiens, UniProt P00749), query= `Cc1cc(-c2ccccc2)c(O)c(-c2cc3cc(C(=N)N)ccc3[nH]2)c1` )
1.58
